I'd appreciate it if you could supply TGI values for the items below.
- Test system: T-47D breast
- test: NCI tumour cell line growth inhibition, 48 h

Checklist item: TGI tested on T-47D breast, entry O=C(CCO)OCCCCCC/C=C\CCCCCC/C=C\CCCCCCCCOC(=O)CCO , value?
35.9 µM

What measured TGI is associated with COc1cccc(-c2cc(=O)c3cccnc3[nH]2)c1 on T-47D breast?
> 100 µM

Record O=C(NNC(=O)c1ccccc1Cl)c1ccccc1O : what is its TGI with T-47D breast?
> 100 µM

Record CC(=O)OCC(=O)C1(O)C(C)CC2C3C=C(C)C4=Cc5c(cnn5-c5ccccc5)CC4(C)C3C(O)CC21C (stereo unspecified) : what is its TGI with T-47D breast?
9.39 µM

Checklist item: TGI tested on T-47D breast, entry COc1nc2c(c(=O)n1C)NC(C(O)C(O)CO)C=N2 (stereo unspecified) , value?
> 10 µM

Tell me reported TGI for CN(NC(=O)c1cccs1)C1=NCCN1 , tested with T-47D breast.
> 100 µM
